# Test system: Sk-Mel-28 cells
# test_name: Cell proliferation assay Method B, Sk-Mel-28
# Assay type: cell-based
# recorded_conditions: Homo sapiens, SK-MEL-28; Melanoma; Method B; 72 hours; read-out: antiproliferative activity IC50, Sk-Mel-28
pIC50: −log10 of the molar value.
Listed here: items and their measured pIC50.

**Query** Would you kindly share the measured pIC50 for CS(=O)(=O)N1CCN(Cc2cc3nc(-c4cccc5[nH]ncc45)nc(N4CCOCC4)c3s2)CC1 [GDC-0941, reference compound] ?
**Result** 7.00 to 8.00

**Query** Which pIC50 value belongs to CN(Cc1cc2nc(-c3cccc(CO)c3)nc(N3CCOCC3)c2s1)c1ncc(C(=O)NO)cn1 ?
**Result** 7.00 to 8.00

**Query** Return reported pIC50; argument: CNc1ncc(-c2nc(N3CCOCC3)c3sc(CN(C)c4ncc(C(=O)NO)cn4)cc3n2)cn1
**Result** > 8.00

**Query** State the recorded pIC50 for this entry: CC(c1cc2nc(-c3cccc4[nH]ncc34)nc(N3CCOCC3)c2s1)N(C)c1ncc(C(=O)NO)cn1 (stereo not drawn)
**Result** 6.00 to 7.00

**Query** Return reported pIC50; argument: Cc1ncc(-c2nc(N3CCOCC3)c3sc(CN(C)c4ncc(C(=O)NO)cn4)cc3n2)cn1
**Result** 7.00 to 8.00

**Query** May I ask what pIC50 has been recorded for CN(Cc1cc2nc(-c3ccc(N)cc3)nc(N3CCOCC3)c2s1)c1ncc(C(=O)NO)cn1 ?
**Result** > 8.00

meta.source: patent US8906909B2
